system: UACC-62; assay: NCI tumour cell line growth inhibition, 48 h
Active and inactive are the calls of the source. No stated cut-off is given here; in the data, active = GI50 up to about 1.1 µM and inactive = higher.
Your answer must be one of the following: active, inactive

// query Dear colleague, could you share the recorded outcome for "Cc1cc(NS(=O)(=O)c2ccc(NC(=O)c3cccc4c(Nc5ccc(S(=O)(=O)Nc6cc(C)on6)cc5)c5ccc(Cl)cc5nc34)cc2)no1" when you have a moment?
// result inactive

// query Dear colleague, could you share the recorded outcome for COc1cc([C@@H]2c3cc4c(cc3C(N)C3COC(=O)[C@@H]32)OCO4)cc(OC)c1O (stereo partly specified) when you have a moment?
// result active

// query Dear colleague, could you share the recorded outcome for "N#CC(c1ccccc1)(c1ccccc1)[C@@H](c1ccccc1)[C@H](Cc1ccccc1)NS(=O)(=O)c1ccccc1" when you have a moment?
// result inactive

---

GI50 for assorted molecules
test system: MDA-MB-435; test: NCI tumour cell line growth inhibition, 48 h
Activity calls are given as the source filed them. No stated cut-off is given here; in the data, active = GI50 up to about 1.1 µM and inactive = higher.

The cases that follow already have their GI50 on record.
* C=C1CCC([N+](=O)[O-])[C@](C)(N=O)CC[C@@H]2C1CC2(C)C (stereo partly specified) | > 10 µM (inactive)
* O=C(O)c1[nH]c(=O)[nH]c(=O)c1CN1CCCCC1 | > 100 µM (inactive)
* Nc1ccn(C2OC(CO)C(O)C2O)c(=O)n1 (stereo unspecified) | 35.4 µM (inactive)

The recorded GI50 for "O=C1C(Cl)=C(N[C@@H](Cc2ccccc2)C(=O)OCc2ccccc2)C(=O)c2c(O)ccc(O)c21" is 3.17 µM (inactive)

---

tested on: PC-3; test: NCI tumour cell line growth inhibition, 48 h
Calls of active or inactive are those of the source. Rule as the data show it: active = GI50 up to about 1.1 µM and inactive = higher.
Your answer must be one of the following: active, inactive

• Cn1c2c(c3ccccc31)CCN1C(=O)CN(C(=O)C3CCCCC3)CC21 (stereo unspecified) = inactive
• CCOC(=O)/C(C(=O)c1ccc[nH]1)=C1/CCCN1C = inactive
• O=C1CSC2(CC(/C=C/c3cccs3)=NN2c2cccc(S(=O)(=O)O)c2)N1c1nc2ccccc2s1 (stereo unspecified) = inactive
• CNCCN[C@@H]1c2cc3c(cc2[C@@H](c2cc(OC)c(O)c(OC)c2)[C@H]2C(=O)OC[C@@H]21)OCO3 = active
• NNC(=O)Cn1ccnn1 = inactive
• COc1ccc(-n2nnc3c(C#N)c(C)c(-c4ccccc4)n3c2=O)cc1 = inactive
• Cc1ccc(CC2(OCCN(C)C)CCC(C(C)(C)C)CC2)cc1 (stereo unspecified) = inactive
• N#CCc1nc(-c2cc3c(ccc4ccccc43)oc2=O)cs1 = inactive

// query Dear colleague, could you share the recorded outcome for "Nc1[nH]c(Nc2ccc(Cl)c(Cl)c2)nc2ncnc1-2" when you have a moment?
// result inactive

// query Dear colleague, could you share the recorded outcome for "FC(F)(F)c1nc2nc(Cl)c(Cl)nc2n1CCCN1CCOCC1" when you have a moment?
// result inactive

// query Dear colleague, could you share the recorded outcome for CCOC(=O)C1=CNC(C(=O)OCC)C1c1cccn1-c1ccccc1 (stereo unspecified) when you have a moment?
// result inactive

---

tested on: LOX IMVI; assay: NCI tumour cell line growth inhibition, 48 h
Active and inactive are the calls of the source. No stated cut-off is given here; in the data, active = GI50 up to about 1.1 µM and inactive = higher.
observation type: GI50

The cases that follow already have their GI50 on record.
• Nc1c(-c2nc3ccccc3s2)c2ccc([N+](=O)[O-])cc2c(=O)n1-c1cccc(C(=O)O)c1 = 31.8 µM (inactive)
• CC(C)(C)OC(=O)NCC(=O)NC1CC=CCC1NC(=O)CNC(=O)OC(C)(C)C (centres undefined) = > 100 µM (inactive)
• CCOC(=O)C(=[N+]=[N-])C(=O)CN1C(=O)C2CC(C)=C(C)CC2C1O (centres undefined) = > 100 µM (inactive)

# context switch: different compound, same GI50
The recorded GI50 for CC(C)(C)OC(=O)NC1CCCC1C(=O)C1=CCCC1 (centres undefined) is 50.6 µM (inactive)

All figures here come from ChEMBL document CHEMBL1201862.
